Tested on: XF498
Test: NCI tumour cell line growth inhibition, 48 h
Structures can show the parent of a compound that is named as a salt. Calls of active or inactive are those of the source. Cut-off read from the data, not from the text of the source: active = GI50 up to about 1.1 µM and inactive = higher.
readout-kind: GI50

{"compound": "CCOC(=O)C(=CNC(Cc1c[nH]c2ccccc12)C(=O)OC)C(=O)OCC (stereo not drawn)", "GI50": "> 100 µM (inactive)"}

Enter reported GI50 observed with XF498 for NCC1(N2CCOCC2)C2CCCC21CNc1ccccc1 (stereo not drawn)
69.8 µM (inactive)

Enter reported GI50 observed with XF498 for CC(=O)N(O)CCCCCNC(=O)CCC(=O)N(O)CCCCCNC(=O)CCC(=O)N(O)CCCCCN [DEFEROXAMINE HYDROCHLORIDE]
> 100 µM (inactive)

* * *

System: K562
Assay: NCI tumour cell line growth inhibition, 48 h
Counter-ions that a name gives are not always drawn. The source made the active and inactive calls. Cut-off read from the data, not from the text of the source: active = GI50 up to about 1.1 µM and inactive = higher.
Give your call using only these classes: true (1) for active, false (0) for inactive

Example entries begin here.
{"molecule": "[O-][S+](Cc1ccccc1)c1ccccc1Cn1cccc1 (stereo not given)", "label": "false (0)"}
{"molecule": "COc1ccc(/N=C2\\C(=S)N(c3ccc(OC)cc3)/C(=N/S(=O)(=O)c3ccccc3)N2c2ccccc2)cc1", "label": "true (1)"}
{"molecule": "CNC(C)Cc1ccccc1OC (stereo not given) [METHOXYPHENAMINE HYDROCHLORIDE]", "label": "false (0)"}

Per the records of this test, what outcome belongs to N#CC(=C1CCN(CCCC(=O)c2ccc(F)cc2)CC1)c1ccccc1 ?
false (0)

Per the records of this test, what outcome belongs to COc1ccc2c(c1)[C@@H]1c3cc(OC)c(OC)cc3CCN1CCC2 ?
false (0)

Per the records of this test, what outcome belongs to CCOC(=O)C1([Se]c2ccccc2)CCCC1=O (stereo not given) ?
false (0)

Per the records of this test, what outcome belongs to Cc1cc2c(cc1Cl)SC(NNc1ccc([N+](=O)[O-])cc1)=NS2(=O)=O ?
false (0)

Per the records of this test, what outcome belongs to O=C1COc2ccc([N+](=O)[O-])cc2C(=O)C1 ?
false (0)

Per the records of this test, what outcome belongs to O=C1C=C/C(=N/c2ccccc2)c2ccccc21 ?
false (0)

Per the records of this test, what outcome belongs to O=c1cc(-c2ccccc2)oc2cc(Oc3nnnn3-c3ccccc3)ccc12 ?
false (0)

Per the records of this test, what outcome belongs to CC1=C(C)C1[N+](=O)[O-] ?
false (0)

Per the records of this test, what outcome belongs to CC(=O)OC[C@H]1CN(OC(C)=O)C[C@@H](n2cc(C)c(=O)[nH]c2=O)O1 ?
false (0)

Per the records of this test, what outcome belongs to Cn1c(=O)cc(NCc2ccc(Cl)cc2)[nH]c1=O ?
false (0)

Per the records of this test, what outcome belongs to COc1cccc(C2c3cc4c(cc3OC(N3CCCCC3)C2C)OCO4)c1OC (stereo not given) ?
false (0)

Per the records of this test, what outcome belongs to COc1cc2nc(-c3cccs3)nc(Nc3cccc([N+](=O)[O-])c3)c2cc1OC ?
false (0)

* * *

System: NCI-H226
Assay: NCI tumour cell line growth inhibition, 48 h
Calls of active or inactive are those of the source. Cut-off read from the data, not from the text of the source: active = GI50 up to about 1.1 µM and inactive = higher.
readout-kind: GI50

{"molecule": "CCN(CC)CCCNC(=O)c1ccc([N+](=O)[O-])cc1O", "GI50": "> 100 µM (inactive)"}
{"molecule": "Cc1ccccc1/C=C/C(=O)c1ccccc1", "GI50": "20.5 µM (inactive)"}
{"molecule": "Cc1c2cc[n+](C)cc2c(C)c2c1oc1ccccc12", "GI50": "2.19 µM (inactive)"}
{"molecule": "O=C1CCSSCCC(=O)Nc2ccccc2N1", "GI50": "> 100 µM (inactive)"}
{"molecule": "Cc1nc(Cl)c(CBr)c(Cl)n1", "GI50": "2.7 µM (inactive)"}

For the next question, use this molecule.
Enter reported GI50 observed with NCI-H226 for CC1=NN(C(=O)CC(=O)Nc2ccccc2F)C(=O)C1/N=N/c1ccccc1[N+](=O)[O-] (stereo unspecified)
> 100 µM (inactive)

Reference for the values: ChEMBL document CHEMBL1201862
